- Assay protocol: gradient 5% acetonitrile 3 min, to 50% in 2 min, to 85% in 15 min, held 3 min, 100 µL/min
- Cond: column: Zorbax Extend-C18 2.1 x 50 mm; eluents: water / acetonitrile, 0.1% formic acid
// assign Met if RP-LC retention time falls strictly below 800 s, else Not met (ties count as Not met)

Inquiry: Below 800 s on RP-LC retention time? Entry `CC(C)c1ccc(-n2nc(N3CCN(C(=O)c4ccco4)CC3)ccc2=O)cc1`
Reply text: Not met

Inquiry: Below 800 s on RP-LC retention time? Entry CC(=O)N1CCCC1c1nc(C2CN(C(=O)c3ccsc3)C2)no1 (stereo not given)
Reply text: Met

Inquiry: Below 800 s on RP-LC retention time? Entry O=C(NCC1CCCO1)c1cccc(Nc2c(-c3ccccc3)nc3cnccn23)c1 (stereo not given)
Reply text: Met

Inquiry: Below 800 s on RP-LC retention time? Entry COc1ccc(-c2noc(C3CC(=O)N(c4ccc(Cl)cc4)C3)n2)c(OC)c1 (stereo not given)
Reply text: Not met

Inquiry: Below 800 s on RP-LC retention time? Entry CCN1CCN(C(=O)c2cn(-c3ccc(S(=O)(=O)N4CCCC(C)C4)cn3)cn2)CC1 (stereo not given)
Reply text: Met

Inquiry: Below 800 s on RP-LC retention time? Entry `COC(=O)c1cccc(-c2nc(-c3cn(Cc4ccccc4)nn3)no2)c1`
Reply text: Not met

Inquiry: Below 800 s on RP-LC retention time? Entry `CN(C)CC/C=C1/c2ccccc2COc2ccccc21`
Reply text: Met

Inquiry: Below 800 s on RP-LC retention time? Entry CCOc1ccc2nc(Nc3ncc4c(n3)CC(c3ccc(C)cc3)CC4=O)nc(C)c2c1 (stereo not given)
Reply text: Not met

Inquiry: Below 800 s on RP-LC retention time? Entry `Cn1cnnc1SCCNC(=O)C1CN(c2nc3ccccc3s2)C1`
Reply text: Met

Inquiry: Below 800 s on RP-LC retention time? Entry `COc1ccc(-c2csc(Nc3cccnc3)n2)cc1`
Reply text: Met

Inquiry: Below 800 s on RP-LC retention time? Entry O=C(NC1CC1)C1c2ccccc2CC(=O)N1Cc1ccccc1 (stereo not given)
Reply text: Met

Inquiry: Below 800 s on RP-LC retention time? Entry `CCN1C(=O)C2(CCN(S(=O)(=O)c3ccc(F)c(C)c3)CC2)c2ccccc21`
Reply text: Not met

Inquiry: Below 800 s on RP-LC retention time? Entry `CC(C)NC(=O)N1CCCN(S(C)(=O)=O)CC1`
Reply text: Met

Inquiry: Below 800 s on RP-LC retention time? Entry `CC(C)c1ccc(-c2nc(-c3ccc4c(c3)oc(=O)n4C)no2)cc1`
Reply text: Not met

Inquiry: Below 800 s on RP-LC retention time? Entry `CC(=O)N1CCC(C(=O)Nc2ccc(OCc3nnc(-c4ccccc4)o3)cc2)CC1`
Reply text: Met

Inquiry: Below 800 s on RP-LC retention time? Entry Cc1ccc(CNC(=O)C2CCCN(c3nnc4c(Cl)cccn34)C2)o1 (stereo not given)
Reply text: Met

Inquiry: Below 800 s on RP-LC retention time? Entry O=C(NCCN1CCCCCC1)C1CCCN(c2nn3c(=O)c4c(nc3s2)CCCC4)C1 (stereo not given)
Reply text: Met

Inquiry: Below 800 s on RP-LC retention time? Entry O=C(O)CC1Sc2ccccc2NC1=O (stereo not given)
Reply text: Met
